- Assayed system: UniProt:Q72547
- Assay overview: Inhibition of RNase H activity of full length recombinant HIV1 reverse transcriptase assessed as reduction in DNA 3'-end cleavage using HTS2 substrate
- Measurement parameters: read-out: IC50
Measurement label: IC50

Some entries whose results are on file:
{"columns": ["Given smiles", "Assayed system", "IC50"],
 "data": [
  ["COc1ccc(-c2cccc(Nc3cc(=O)n(O)c(=O)n3C)c2)c(OC)c1", "UniProt:Q72547", "2100 nM"],
  ["COc1ccc(-c2ccc(Nc3cc(=O)n(O)c(=O)n3C)cc2)cc1", "UniProt:Q72547", "6600 nM"],
  ["COc1cccc(-c2ccc(Nc3cc(=O)n(O)c(=O)n3C)cc2)c1", "UniProt:Q72547", "3500 nM"]
]}

For each listed entry, give its IC50.
1. O=c1cc(Nc2ccc(-c3ccc(O)cc3)cc2)[nH]c(=O)n1O
2. Cn1c(Oc2cccc(-c3cccc(O)c3)c2)cc(=O)n(O)c1=O

Response:
1. 450 nM
2. 12000 nM

Hi, could you look up IC50 for each item in my list?
1. Cn1c(Nc2cccc(-c3ccccc3)c2)cc(=O)n(O)c1=O
2. O=c1cc(Nc2ccc(-c3ccccc3O)cc2)[nH]c(=O)n1O
3. COc1cccc(OC)c1-c1cccc(Nc2cc(=O)n(O)c(=O)[nH]2)c1
4. COc1cc(OC)cc(-c2ccc(Nc3cc(=O)n(O)c(=O)n3C)cc2)c1
5. COc1ccc(-c2cccc(Nc3cc(=O)n(O)c(=O)n3C)c2)cc1OC
6. COc1cc(OC)cc(-c2cccc(Nc3cc(=O)n(O)c(=O)n3C)c2)c1

Response:
["3500 nM", "490 nM", "700 nM", "7200 nM", "2200 nM", "2800 nM"]

====

- Assayed system: Human immunodeficiency virus type 1 reverse transcriptase (Human immunodeficiency virus 1, UniProt Q72547)
- Assay overview: Inhibition of RNase H activity of full length recombinant HIV1 reverse transcriptase assessed as reduction in nonspecific internal cleavage using HTS1 substrate
- Measurement parameters: read-out: IC50
Measurement label: IC50 (nM)
Numbers only, in nM.

Reference set (5 entries):
{"columns": ["Given smiles", "IC50 / nM"],
 "data": [
  ["Cn1c(Nc2ccc(-c3ccc(C(F)(F)F)cc3)cc2)cc(=O)n(O)c1=O", 3600],
  ["O=c1cc(Nc2ccc(-c3cccc(O)c3)cc2)[nH]c(=O)n1O", 220],
  ["Cn1c(Nc2cccc(-c3cccc(C#N)c3)c2)cc(=O)n(O)c1=O", 1100],
  ["O=c1cc(Nc2ccc(-c3ccccc3)cc2)[nH]c(=O)n1O", 250],
  ["Cc1noc(C)c1-c1ccc(Nc2cc(=O)n(O)c(=O)n2C)cc1", 1600]
]}

Okay, here is my list. What is IC50 for each of these?
1. COc1ccc(-c2ccccc2Oc2cc(=O)n(O)c(=O)n2C)cc1
2. Cn1c(Nc2ccc(-c3ccccc3)cc2)cc(=O)n(O)c1=O
3. Cn1c(Oc2ccc(-c3ccc(C#N)cc3)cc2)cc(=O)n(O)c1=O
4. Cn1c(Oc2ccc(-c3ccc(C(F)(F)F)cc3)cc2)cc(=O)n(O)c1=O
5. O=c1cc(Nc2ccc(-c3ccc(O)cc3)cc2)[nH]c(=O)n1O
6. Cn1c(Nc2ccc(-c3cccc(C#N)c3)cc2)cc(=O)n(O)c1=O

Response:
1. 2300
2. 800
3. 2500
4. 6200
5. 180
6. 1200
